System: Streptococcus pneumoniae
measurement.notes: MIC by agar dilution, SPNE 9912
Format: cell-based
test.context: Streptococcus pneumoniae, strain SPNE 9912, read-out: Antibacterial Activity Minimum Inhibitory Concentration SPNE 9912
quantity: MIC

* C[N-][S+2]1([O-])CCC(c2ccc(N3CC(CNC(=S)C4CC4)OC3=O)cc2F)CC1 (stereo not drawn) [Example 29] | 0.25 µg/mL
* CCC(=S)NCC1CN(c2ccc(C3CC[S+2]([O-])([N-]C)CC3)c(F)c2)C(=O)O1 (stereo not drawn) [Example 32] | 0.5 µg/mL
* CCC(=S)NC[C@H]1CN(c2ccc(N3CCS(=N)(=O)CC3)c(F)c2)C(=O)O1 [Example 2] | 0.25 µg/mL
* CCC(=S)NCC1CN(c2ccc(C3CC[S+2]([O-])([N-]CCCc4ccccc4)CC3)c(F)c2)C(=O)O1 (stereo not drawn) [Example 17] | 0.5 µg/mL
* CCC(=S)NC[C@H]1CN(c2ccc([C@H]3CC[S@+2]([O-])([N-]C(N)=O)CC3)c(F)c2)C(=O)O1 [Example 22] | 0.125 µg/mL
* CCC(=S)NCC1CN(c2ccc(C3CC[S+2]([O-])([N-]C(=O)Nc4ccc([N+](=O)[O-])cc4)CC3)c(F)c2)C(=O)O1 (stereo not drawn) [Example 21] | < 0.06 µg/mL
* CCC(=S)NCC1CN(c2ccc(C3CC[S+2]([O-])([N-]C(=O)NC)CC3)c(F)c2)C(=O)O1 (stereo not drawn) [Example 18] | 0.25 µg/mL
* CN=S1(=O)CCN(c2ccc(N3C[C@H](CNC(=S)C4CC4)OC3=O)cc2F)CC1 [Example 26] | 0.25 µg/mL
* CCC(=S)NCC1CN(c2ccc(C3CC[S+2]([O-])([N-]C(=O)OC)CC3)c(F)c2)C(=O)O1 (stereo not drawn) [Example 19] | 0.25 µg/mL
* N=S1(=O)CCN(c2ccc(N3C[C@H](CNC(=S)C4CC4)OC3=O)cc2F)CC1 [Example 3] | 0.25 µg/mL
* CC[N-][S@+2]1([O-])CC[C@@H](c2ccc(N3C[C@H](CNC(=S)CC)OC3=O)cc2F)CC1 [Example 15] | 0.5 µg/mL
* CCC(=S)NC[C@H]1CN(c2ccc([C@H]3CC[S@+2]([O-])([N-]C)CC3)c(F)c2)C(=O)O1 [Example 13] | 0.25 µg/mL
* CCC(=S)NCC1CN(c2ccc(C3CC[S+2]([O-])([N-]Cc4ccccc4)CC3)c(F)c2)C(=O)O1 (stereo not drawn) [Example 16] | 0.25 µg/mL
* CCC(=S)NC[C@H]1CN(c2ccc(N3CCS(=O)(=NC)CC3)c(F)c2)C(=O)O1 [Example 25] | 0.25 µg/mL
* CCC(=S)NC[C@H]1CN(c2ccc([C@H]3CC[S@+2]([O-])([N-]CC(N)=O)CC3)c(F)c2)C(=O)O1 [Example 23] | 0.25 µg/mL

----------
Tested on: H. influenzae
measurement.notes: MIC by agar dilution, HINF 30063
Format: cell-based
test.context: Haemophilus influenzae, strain HINF 30063, read-out: Antibacterial Activity Minimum Inhibitory Concentration HINF 30063
quantity: MIC (µg/mL)

• CCC(=S)NCC1CN(c2ccc(C3CC[S+2]([O-])([N-]C)CC3)c(F)c2)C(=O)O1 (stereo not shown) [Example 32] = 8
• CCC(=S)NC[C@H]1CN(c2ccc(N3CCS(=O)(=NC)CC3)c(F)c2)C(=O)O1 [Example 25] = 4
• CCC(=S)NCC1CN(c2ccc(C3CC[S+2]([O-])([N-]C(=O)NC)CC3)c(F)c2)C(=O)O1 (stereo not shown) [Example 18] = 8
• CCC(=S)NC[C@H]1CN(c2ccc([C@H]3CC[S@+2]([O-])([N-]C(N)=O)CC3)c(F)c2)C(=O)O1 [Example 22] = 4
• CCC(=S)NC[C@H]1CN(c2ccc([C@H]3CC[S@+2]([O-])([N-]C)CC3)c(F)c2)C(=O)O1 [Example 13] = 8
• CC[N-][S@+2]1([O-])CC[C@@H](c2ccc(N3C[C@H](CNC(=S)CC)OC3=O)cc2F)CC1 [Example 15] = 8

----------
Readings of MIC for the listed compounds
System: Staphylococcus aureus
measurement.notes: MIC by agar dilution, SAUR 9213
Type: cell-based
test.context: Staphylococcus aureus, strain SAUR 9213, read-out: Antibacterial Activity Minimum Inhibitory Concentration SAUR 9213
quantity: MIC (µg/mL)

* CCC(=S)NCC1CN(c2ccc(C3CC[S+2]([O-])([N-]C(=O)OC)CC3)c(F)c2)C(=O)O1 (centres unmarked) | 1
* CCC(=S)NC[C@H]1CN(c2ccc([C@H]3CC[S@+2]([O-])([N-]C)CC3)c(F)c2)C(=O)O1 | 1
* CCC(=S)NCC1CN(c2ccc(C3CC[S+2]([O-])([N-]C(=O)NC)CC3)c(F)c2)C(=O)O1 (centres unmarked) | 2
* CC[N-][S@+2]1([O-])CC[C@@H](c2ccc(N3C[C@H](CNC(=S)CC)OC3=O)cc2F)CC1 | 2
* CCC(=S)NCC1CN(c2ccc(C3CC[S+2]([O-])([N-]C)CC3)c(F)c2)C(=O)O1 (centres unmarked) | 4
* C[N-][S+2]1([O-])CCC(c2ccc(N3CC(CNC(=S)C4CC4)OC3=O)cc2F)CC1 (centres unmarked) | 1
* CN=S1(=O)CCN(c2ccc(N3C[C@H](CNC(=S)C4CC4)OC3=O)cc2F)CC1 | 2
* CCC(=S)NC[C@H]1CN(c2ccc(N3CCS(=N)(=O)CC3)c(F)c2)C(=O)O1 | 1

----------
System: Enterococcus faecium
measurement.notes: MIC by agar dilution, EFAE 12712
Type: cell-based
test.context: Enterococcus faecium, strain EFAE 12712, read-out: Antibacterial Activity Minimum Inhibitory Concentration EFAE 12712
From the text: The in vitro activity of compounds of this invention can be assessed by standard testing procedures such as the determination of minimum inhibitory concentration (MIC) by agar dilution as described in “Approved Standard.
Readings of MIC for the listed compounds
quantity: MIC (µg/mL)

- N=S1(=O)CCN(c2ccc(N3C[C@H](CNC(=S)C4CC4)OC3=O)cc2F)CC1: 0.5
- CCC(=S)NCC1CN(c2ccc(C3CC[S+2]([O-])([N-]C(=O)NC)CC3)c(F)c2)C(=O)O1 (centres unmarked): 1
- CCC(=S)NCC1CN(c2ccc(C3CC[S+2]([O-])([N-]C)CC3)c(F)c2)C(=O)O1 (centres unmarked): 2
- C[N-][S+2]1([O-])CCC(c2ccc(N3CC(CNC(=S)C4CC4)OC3=O)cc2F)CC1 (centres unmarked): 1
- CCC(=S)NCC1CN(c2ccc(C3CC[S+2]([O-])([N-]CCCc4ccccc4)CC3)c(F)c2)C(=O)O1 (centres unmarked): 2
- CC[N-][S@+2]1([O-])CC[C@@H](c2ccc(N3C[C@H](CNC(=S)CC)OC3=O)cc2F)CC1: 1
- CCC(=S)NCC1CN(c2ccc(C3CC[S+2]([O-])([N-]Cc4ccccc4)CC3)c(F)c2)C(=O)O1 (centres unmarked): 1
- CCC(=S)NC[C@H]1CN(c2ccc(N3CCS(=O)(=NC)CC3)c(F)c2)C(=O)O1: 1

----------
quantity: melting point

- CCC(=S)NC[C@H]1CN(c2ccc([C@H]3CC[S@+2]([O-])([N-]C(N)=O)CC3)c(F)c2)C(=O)O1: 236 to 238 °C (dec.)
- CCC(=S)NC[C@H]1CN(c2ccc(N3CCS(=N)(=O)CC3)c(F)c2)C(=O)O1: 189 to 190 °C
- CCC(=S)NCC1CN(c2ccc(C3CC[S+2]([O-])([N-]CCCc4ccccc4)CC3)c(F)c2)C(=O)O1 (stereo not shown): 165.5 to 167 °C
- N=S1(=O)CCN(c2ccc(N3C[C@H](CNC(=S)C4CC4)OC3=O)cc2F)CC1: 209 to 210 °C (dec.)
- C[N-][S+2]1([O-])CCC(c2ccc(N3CC(CNC(=S)C4CC4)OC3=O)cc2F)CC1 (stereo not shown): 201 to 202 °C (dec.)
- CCC(=S)NCC1CN(c2ccc(C3CC[S+2]([O-])([N-]C(=O)Nc4ccc([N+](=O)[O-])cc4)CC3)c(F)c2)C(=O)O1 (stereo not shown): 222 to 228 °C
- CCC(=S)NCC1CN(c2ccc(C3CC[S+2]([O-])([N-]Cc4ccccc4)CC3)c(F)c2)C(=O)O1 (stereo not shown): 207 to 208 °C

----------
Readings of Antibacterial Activity Minimum Inhibitory Concentration EFAE 12712 for the listed molecules
System: Enterococcus faecium
measurement.notes: MIC by agar dilution, EFAE 12712
Format: cell-based
test.context: strain EFAE 12712
quantity: Antibacterial Activity Minimum Inhibitory Concentration EFAE 12712 (µg/mL)

• C[N-][S+2]1([O-])CCC(c2ccc(N3CC(CNC(=S)C4CC4)OC3=O)cc2F)CC1 (stereo not shown) [Example 31] = 2
• CCC(=S)NC[C@H]1CN(c2ccc(C3CCS(=O)(=NCCO)CC3)c(F)c2)C(=O)O1 (single isomer, unassigned) [Example 24] = 1
• CC(=S)NC[C@H]1CN(c2ccc(C3CCS(=N)(=O)CC3)c(F)c2)C(=O)O1 (single isomer, unassigned) [Example 9] = 0.5
• CC(=O)NC[C@H]1CN(c2ccc(N3CCS(=N)(=O)CC3)c(F)c2)C(=O)O1 [PREP 1] = 4
• CCC(=S)NC[C@H]1CN(c2ccc(C3CCS(=O)(=NC(C)=O)CC3)c(F)c2)C(=O)O1 (single isomer, unassigned) [Example 14] = 1
• CC(=O)NC[C@H]1CN(c2ccc(C3CCS(=O)(=NC(=O)OCc4ccccc4)CC3)c(F)c2)C(=O)O1 (single isomer, unassigned) [Example 33] = 4
• CC(=O)NC[C@H]1CN(c2ccc(C3CCS(=O)(=NC(=O)NCc4ccccc4)CC3)c(F)c2)C(=O)O1 (single isomer, unassigned) [Example 34] = 4
